Every entry's value here was drawn from patent US20240376091A1.

Molecular target: AR (Homo sapiens, UniProt P10275, T878A)
Construct: into the androgen-dependent PCa cells (LNCaP); endogenous in cells; host or cells: LNCaP-ARR2PB-eGFP
Sequence (P10275 1-920 T878A): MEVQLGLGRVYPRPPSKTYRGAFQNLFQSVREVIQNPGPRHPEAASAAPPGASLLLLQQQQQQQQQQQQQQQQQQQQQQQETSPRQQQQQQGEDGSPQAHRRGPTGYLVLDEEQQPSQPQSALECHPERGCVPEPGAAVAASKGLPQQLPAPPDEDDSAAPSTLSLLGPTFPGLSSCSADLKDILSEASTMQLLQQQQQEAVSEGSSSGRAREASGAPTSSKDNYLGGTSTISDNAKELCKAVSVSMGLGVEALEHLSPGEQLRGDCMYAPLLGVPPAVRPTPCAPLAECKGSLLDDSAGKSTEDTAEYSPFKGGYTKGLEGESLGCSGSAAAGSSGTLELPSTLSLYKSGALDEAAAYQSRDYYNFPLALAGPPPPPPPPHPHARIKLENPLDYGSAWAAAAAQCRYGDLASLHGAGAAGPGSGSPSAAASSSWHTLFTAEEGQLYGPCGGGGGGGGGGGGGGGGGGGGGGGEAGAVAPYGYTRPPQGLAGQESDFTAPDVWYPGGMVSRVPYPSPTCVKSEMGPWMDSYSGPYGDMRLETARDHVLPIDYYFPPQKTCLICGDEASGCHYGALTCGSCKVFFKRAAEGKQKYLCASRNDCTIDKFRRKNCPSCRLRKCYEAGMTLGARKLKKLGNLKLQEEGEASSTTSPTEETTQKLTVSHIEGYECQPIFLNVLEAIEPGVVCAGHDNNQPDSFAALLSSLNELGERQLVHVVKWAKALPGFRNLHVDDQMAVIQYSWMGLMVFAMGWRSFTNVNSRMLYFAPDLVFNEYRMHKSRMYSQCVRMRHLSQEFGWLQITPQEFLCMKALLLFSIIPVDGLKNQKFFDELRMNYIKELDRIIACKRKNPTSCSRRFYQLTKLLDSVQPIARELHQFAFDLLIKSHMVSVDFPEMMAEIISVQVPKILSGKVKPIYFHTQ
Test: AR transcriptional activity, LNCaP-ARR2PB-eGFP reporter cells
Format: cell-based
Settings: read-out: IC50 AR transcriptional activities
From the text: Detection principles: We conducted a stable transfection of promoter ARR2PB known for its strong AR responsiveness, into the androgen-dependent PCa cells (LNCaP). The expression of enhanced green fluorescent protein (eGFP) is depending on the degree of activation of AR. Therefore, LNCaP-ARR2PB-eGFP cell line could quantitatively determine the AR antagonistic activities of the compounds by evaluating the expression of eGFP.
pIC50: −log10 of the molar value.
Kind request: treat 5 as inclusive, so pIC50 at 5 or higher is criterion met, anything lower is criterion not met.

Is the recorded value of pIC50 equal to or greater than 5 for this compound? CC(=O)Cc1nsc(NC(=O)c2cc(-c3cccc(C#N)c3)sc2C)n1
criterion not met

Decide: is the reported value of pIC50 for Cc1oc(-c2cccc(C(F)(F)F)c2)cc1C(=O)Nc1nc(CC(C)N(C)C)ns1 (centres unmarked) equal to or greater than 5?
criterion met

Evaluate Cc1oc(-c2cccc(C#N)c2)cc1C(=O)Nc1nc(CCl)ns1 : pIC50 at minimum 5?
criterion met

Does the compound COc1cccc(-c2cc(C(=O)Nc3nc(CC(C)=O)ns3)c(C(F)(F)F)o2)c1 have recorded pIC50 that is 5 or more?
criterion met

Threshold query (pIC50 >= 5) on CC(=O)Cc1nsc(NC(=O)c2csc(-c3cccc(OC(F)F)c3)c2)n1
criterion not met

State whether the measured pIC50 reaches 5, counting equality as reaching it, for Cc1oc(-c2cccc(C(F)(F)F)c2)cc1C(=O)Nc1nc(CN2CCN(C)CC2)ns1
criterion met

Determine whether this compound has pIC50 no lower than 5: Cc1oc(C(=O)Nc2nc(CC(C)N3CCCC3)ns2)cc1-c1cccc(C(F)(F)F)c1 (centres unmarked)
criterion not met

Please check the record CC(=O)Cc1nsc(NC(=O)c2cc(-c3cccc(OC(F)F)c3)co2)n1 and state if its pIC50 is at or above 5.
criterion not met
